Biological target: Nm23-H1 (Homo sapiens, UniProt P15531)
Sequence (P15531 whole entry): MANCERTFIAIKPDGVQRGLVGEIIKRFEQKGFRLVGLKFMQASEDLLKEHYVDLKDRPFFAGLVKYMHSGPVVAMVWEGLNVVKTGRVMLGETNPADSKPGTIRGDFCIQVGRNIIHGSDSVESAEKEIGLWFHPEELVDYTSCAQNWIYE
Assay: Surface plasmon resonance analysis of interaction with immobilized Nm23-H1
Format: binding
Settings: SPR, 25° C., without ATP; calculated Kd/Ka
Quantity kind: pKd
Units for pKd: none; it is -log10 of a concentration expressed in mol/L.

Q: Which pKd value is on record for COc1ccc(/C=C/[C@H]2CCC=C[C@@H]2c2ccc(OC)c(OC)c2)cc1OC ?
Ans: 4.75

Source listed as patent US11389411B2.
